Target: T1, human LIV-1 (human, UniProt Q13433 29-755)
T1 sequence (looked up): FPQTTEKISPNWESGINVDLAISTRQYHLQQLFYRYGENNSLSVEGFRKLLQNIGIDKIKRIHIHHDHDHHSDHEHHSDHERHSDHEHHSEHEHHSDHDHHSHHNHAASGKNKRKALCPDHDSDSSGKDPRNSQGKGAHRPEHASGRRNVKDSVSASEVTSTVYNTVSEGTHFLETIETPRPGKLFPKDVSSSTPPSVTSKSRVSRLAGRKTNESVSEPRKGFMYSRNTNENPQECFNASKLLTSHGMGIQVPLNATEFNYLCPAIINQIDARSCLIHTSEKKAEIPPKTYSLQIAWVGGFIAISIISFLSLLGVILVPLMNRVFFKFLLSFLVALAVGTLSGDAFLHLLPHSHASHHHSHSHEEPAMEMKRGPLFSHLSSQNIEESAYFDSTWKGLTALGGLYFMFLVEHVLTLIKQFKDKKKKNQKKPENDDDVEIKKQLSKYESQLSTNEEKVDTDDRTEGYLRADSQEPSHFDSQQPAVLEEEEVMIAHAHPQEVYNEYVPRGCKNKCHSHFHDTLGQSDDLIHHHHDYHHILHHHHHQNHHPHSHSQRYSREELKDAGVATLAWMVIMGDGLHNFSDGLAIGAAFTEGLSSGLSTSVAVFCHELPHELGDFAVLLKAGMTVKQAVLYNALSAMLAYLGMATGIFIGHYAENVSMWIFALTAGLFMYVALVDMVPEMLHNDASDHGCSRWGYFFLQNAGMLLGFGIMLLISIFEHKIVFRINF
Assay: cell-based or functional assay
Record form. Attribute: Internalization Top (RFU). Fill in for each entry.
// return numeric value only (unit: RFU, not printed)

Lab note: measured Internalization Top (RFU) of 112H11C12 (antibody, V domains shown, Tested as chimeric antibody; also called 112H1C12) VH: QVQLQQPGAELVRPGASVKLSCKASGYTFTSYWMNWVKQRPGQGLKWIGMIDPSNSKTHYNQMFKDKATLTVDKSSNTAYMQLSSLTSEDSAVYYCARTSTTMATFAYWGQGTLVSVSA VL: DVLMTQTPLSLPVSLGDQASISCRSSQSIVHSNGNTYLEWYLQKPGQSPKLLIYKVSNRFSGVPDRFSGSGSGTDFTLKISRVEAEDLGVYYCFQASHFPLTFGAGTELDLN was 643000

Lab note: measured Internalization Top (RFU) of 248H1G3 (antibody, V domains shown, Tested as chimeric antibody) VH: EVQLQQSGPELMKRGASVKISCKTSTFTFTEFTIHWVKQSHGKSLEWIGGINPNTGGTSYNQNFTGKATLTVDKSSITAYMELRSLTSEDSAIYYCAPNWDGYWFFDVWGAGTTVTVSS VL: DIQMTQSPASLSASVGETVTITCRASGNIQNYLAWYQQKQGKSPQLLVYGAKTLADGVPSRFSGSGSGTQFSLKINSLQPEDFGSYYCQHFWSPPLTFGAGTKLELK was 357000

Lab note: measured Internalization Top (RFU) of 135C6E7 (antibody, V domains shown, Tested as chimeric antibody) VH: EVQLVESGGGLVQPKGSLKLSCAASGFTFNTYAMNWVRQAPGKGLEWVARIRSKYNSYATYYADSVKDRFTISRDDSQSILYLQMNNLKTEDTAMYYCVRHEDYDGGFAYWGQGTLVTVSA VL: DIVMSQSPSSLAVSVGEKVTMSCKSSQSLFKSRTRKNYLAWYQQKPGQSPKLLIYWASTRESGVPDRFTGSGSGTDFTLTISSVQAEDLAVYYCKESYNLMYTFGGGTKLEIK was 675000
